Tested on: HOP-62
measurementNotes: NCI tumour cell line growth inhibition, 48 h
The source made the active and inactive calls. No stated cut-off is given here; in the data, active = GI50 up to about 1.1 µM and inactive = higher.
quantityKind: GI50

Give the observed GI50 of COc1ccc(N2C(=O)C3c4[nH]c5ccccc5c4C4CC(C)(C)CC(C)(C)C4C3C2=O)cc1 (stereo unspecified) for HOP-62.
16.7 µM (inactive)

Give GI50 only, for `CN(Cc1ccccc1)C1(N(C)Cc2ccccc2)CC1` , using HOP-62 data.
> 100 µM (inactive)

Name the recorded GI50 of COc1ccc2c(c1)nc1n2C(c2c(Cl)cccc2Cl)SC1 (stereo unspecified) , assay system HOP-62.
32.9 µM (inactive)

Provide measured GI50 on HOP-62 for `COc1c(C)n(CCO)ccc1=O` please.
> 100 µM (inactive)

Give the observed GI50 of `Fc1ccc(C2(CCCN3CCc4[nH]c5cc(F)ccc5c4C3)OCCO2)cc1` for HOP-62.
13 µM (inactive)

Hey, quick one: what's GI50 for each of these?
1. Cc1ccc(NC(=O)C(=O)Cc2cccc[n+]2[O-])cc1C
2. Nc1ccc(Oc2ccc(C34CC5C6CC7(c8ccc(Oc9ccc(N)cc9)cc8)CC5C(C3)C(C7)C6C4)cc2)cc1

1. > 100 µM (inactive)
2. > 100 µM (inactive)

Provide GI50 for all items below, preserving their order.
1. C=CCCON(C(=O)OC(C)(C)C)C(C)(C)C
2. C[N+]12C=CC=C1C(N1CCCC1)c1scc(-c3ccc(Br)cc3)c12 (stereo unspecified)
3. C=CCC(CC=O)(C(=O)OCC)C(=O)OCC
4. COc1ccc(/C(=N\NC(=O)C(N)=O)C(c2ccc(OC)cc2)C2(O)C(=O)Nc3c(Cl)cccc32)cc1 (stereo unspecified)
5. O=c1[nH]nc(Cc2ccc(Cl)cc2)n1/N=C\c1ccc(/C=N/n2c(Cc3ccc(Cl)cc3)n[nH]c2=O)cc1
6. O=C1CCCc2ccc3c(c21)CC1(Cc2cc4c(cc2C1)CCCC4)C3

> 100 µM (inactive)
14.8 µM (inactive)
> 100 µM (inactive)
> 100 µM (inactive)
17 µM (inactive)
24.7 µM (inactive)

###

Test system: HT-29
measurementNotes: NCI tumour cell line growth inhibition, 48 h
The source made the active and inactive calls. Rule as the data show it: active = GI50 up to about 1.1 µM and inactive = higher.
Choose one outcome from this list and give only that: true = active, false = inactive

Example entries and their recorded answers appear below.
GET /call?item= `CCCSc1ccc2[nH]c(N3C(=O)/C(=C/c4cc(OC)c(OC)c(OC)c4)N=C3c3ccccc3)cc2c1` returns the recorded outcome of this test.
false

Field: outcome | Entry: COC(=O)CC(NC(=O)OCc1ccccc1)C(C(=O)OCc1ccccc1)C(C)(OC)OC (stereo not given)
false

Assay outcome for `O=S1(=O)CS(=O)(=O)OCCCO1` : what was it?
false

***
Hi team, can someone confirm the assay call for `CC1(C)CC(/C=C2/OC(=O)c3ccccc32)=C(C#N)C(=O)O1` ?
false

What classification did `O=C1NC(N2CCCCC2)=N/C1=C\c1ccccc1O` end up with in this test?
false

What is the recorded call for this compound in the test? `COc1cccc(N/C(C)=C2/CCOC2=O)c1`
false

Entry CC(=O)NC1C(OCc2ccccc2)OC(CO)C(O)C1OCC(=O)NC(C)C(=O)NC(CCC(=O)OCCNC(=O)c1cccc2cc3ccccc3nc12)C(N)=O (stereo not given) : call = ?
false

###

System: HCT-116
measurementNotes: NCI tumour cell line growth inhibition, 48 h
Activity calls are given as the source filed them. Cut-off read from the data, not from the text of the source: active = GI50 up to about 1.1 µM and inactive = higher.
quantityKind: GI50

// known answers, use as guide
Return GI50 (reported value) for this compound: `CCCSc1ccc2[nH]c(N3C(=O)/C(=C/c4cc(OC)c(OC)c(OC)c4)N=C3c3ccccc3)cc2c1`
16.5 µM (inactive)

Return the recorded GI50 value; entry: `CC[C@@H]1CC[C@@H]2[C@H](CC[C@]3(C)[C@@H](O[N+](=O)[O-])CC[C@@H]23)[C@H]1C(C)=O`
23.7 µM (inactive)

Let me know recorded GI50 for `Cc1n[nH]c(=O)n1/N=C/c1ccco1` , thanks.
> 100 µM (inactive)

Give recorded GI50. CCOC1c2cc(C(C)C)c(O)c(O)c2[C@@]23CCCC(C)(C)C2C1OC3=O (stereo not given in full)
> 100 µM (inactive)

Output measured GI50 for this item: `O=C1CC2(CCNCC2)C(=O)N1N1CCCC1`
> 100 µM (inactive)

Could you report GI50 for every entry in the following list?
1. CCOC(=O)/N=c1/nc(N(C)C)ss1
2. N#CC1(C#N)NC(c2ccsc2)C(C#N)(C#N)NC1c1ccsc1 (stereo not given)
3. O=C(CCl)NC(Cc1ccc(F)cc1)C(=O)O (stereo not given)

1: > 100 µM (inactive); 2: > 100 µM (inactive); 3: > 100 µM (inactive)

Below are 2 compounds. Give each one its GI50.
1. CCN(CC)CCn1c(=O)c2ccccc2n2c3c(=O)n(C)c(=O)n(C)c3nc12
2. CC(C)OP(=O)(OC(C)C)/C(=N/Nc1ccc([N+](=O)[O-])cc1)NCCO

1: 1.55 µM (inactive); 2: > 100 µM (inactive)

###

Test system: COLO 205
measurementNotes: NCI tumour cell line growth inhibition, 48 h
Calls of active or inactive are those of the source. No stated cut-off is given here; in the data, active = GI50 up to about 1.1 µM and inactive = higher.
Select the matching outcome among active, inactive

Record lookup: outcome of this test for `C/C=C/[C@@H]1[C@H]2C(=O)[C@]3(Cl)[C@@H](/C=C/C)[C@@H]3C(=O)[C@@]12Cl` ?
inactive

New cases:
I'd appreciate the recorded outcome for `CS/C(=N\S(=O)(=O)c1ccc(Cl)cc1)NCCN/C(=N/S(=O)(=O)c1ccc(Cl)cc1)SC` from this test.
inactive

// param item: `CC(C)C(=O)NC(=S)Nc1ccc([N+](=O)[O-])cc1C#N` ; yields the recorded call
inactive

Hey, what did the test say about NC(=O)NCCCC(NC(=O)OCCCCCn1ccc(=O)[nH]c1=O)C(=O)O (configuration not stated) ?
inactive

Which outcome was entered for the compound COc1ccc(N2C(=O)CC(=O)N(NC(=O)C(C)Oc3ccccc3C)C2=S)cc1 (configuration not stated) in this test?
inactive

Given `O=C1c2ccccc2C(=O)N1[C@@H](Cc1ccccc1)C(=O)n1cccc1CO` , state the outcome it received in this test.
inactive

###

Test system: SW-620
measurementNotes: NCI tumour cell line growth inhibition, 48 h
Calls of active or inactive are those of the source. No stated cut-off is given here; in the data, active = GI50 up to about 1.1 µM and inactive = higher.
quantityKind: GI50

Observe how each entry below is paired with its result.
Provide only the value of recorded GI50 for `Cc1ccc(Cn2c(C)nc3c2C(=O)c2ccccc2C3=O)cc1`
3.33 µM (inactive)

Provide measured GI50 value, entry: COc1c(O)ccc2c1CN1CCc3cc4c(cc3C1C2)OCO4 (stereo not drawn)
29.9 µM (inactive)

Now examine the next entry.
Provide only the value of recorded GI50 for `Cc1cc(NCCCCCCCNc2cc(C)nc3cc([N+](=O)[O-])ccc23)c2ccc([N+](=O)[O-])cc2n1`
2.1 µM (inactive)

###

Test system: KM-20L2
measurementNotes: NCI tumour cell line growth inhibition, 48 h
Calls of active or inactive are those of the source. No stated cut-off is given here; in the data, active = GI50 up to about 1.1 µM and inactive = higher.
What GI50 was measured for each of the following?

Name the recorded GI50 of the item `CC/C(CC(=O)CCC(=O)Nc1ccccc1[N+](=O)[O-])=N/NC(=O)C[n+]1ccccc1` in your answer.
> 100 µM (inactive)

Given the compound `Cc1ccc(C(N)=O)cc1/N=N/N(C)C` , write its reported GI50.
> 100 µM (inactive)

Return GI50 for the following compound: `CN(Cc1ccccc1)C1(N(C)Cc2ccccc2)CC1`
> 100 µM (inactive)

Read off the recorded GI50 for `Cc1c2ccnc(C(F)(F)F)c2cc2c1[nH]c1ccccc12`
> 125 µM (inactive)

Give the measured GI50 for `CN1CC[C@@H](c2c(O)cc(O)c3c(=O)cc(-c4ccccc4Cl)oc23)[C@@H](O)C1`
0.174 µM (active)

Indicate its recorded GI50; the compound in question is C[Si]1(C)C(c2ccccc2)=CC2C(c3ccccc3)(c3ccccc3)OC21c1ccccc1 (stereo unspecified)
92.9 µM (inactive)

Parameters: items (list). Returns: GI50 for each item.
1. O=C1CCC2(c3ccccc3)OCC([C@@H](O)c3ccccc3)N12 (stereo partly specified)
2. C=CCc1ccc(Oc2cc(CC=C)c3c(c2O)O[C@@H](CO)[C@H]3c2ccc(O)c(-c3cc(CC=C)ccc3O)c2)cc1
3. Brc1ccc(C[P+]2(c3ccccc3)CCCCC2)cc1.[O-][Cl+3]([O-])([O-])[O-]

1. > 100 µM (inactive)
2. 32.9 µM (inactive)
3. 61.2 µM (inactive)

Okay, here is my list. What is GI50 for each of these?
1. COc1ccc(CNc2nc3cc(C(F)(F)F)ccc3nc2C)cc1OC
2. CC(C)C1=CC(=O)C(C)(C2=NC(C)(C)CO2)c2ccccc21 (stereo unspecified)

["44.1 µM (inactive)", "> 100 µM (inactive)"]
